# target: T1, RBFOX1 RRM (Homo sapiens, UniProt Q9NWB1 109-208)
# T1 sequence: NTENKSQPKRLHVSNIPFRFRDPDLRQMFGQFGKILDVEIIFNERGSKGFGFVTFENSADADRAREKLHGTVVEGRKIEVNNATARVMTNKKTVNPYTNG
# assay explanation: EMSA; HiTS-Eq, 1 nM pool, 10 min; buffer printed only for the single-RNA assays: 10 mM Tris pH 7.5, 150 mM NaCl, 3.4 mM EDTA, 0.001% NP-40, 30 C
# protocol conditions: tags: His6 N-terminal (pET28a); label: 5' 32P
Over roughly 16,000 sequences, “ka relative to ugcaugu” has its median near 0.0091; the highest 2% begin near 0.032. The list comes from a sample in which the highest values are over-represented; it also holds close analogues and randomly drawn sequences.
measured endpoint: binding signal

Memo: UGGGCGU (DNA:RNA) RNA: GGGAGACCGGAAUUCAGAUUGUCCUGGGCGUUUAAAUCCCGUCGUAGCCACCA DNA 1: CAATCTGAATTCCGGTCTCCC DNA 2: TGGTGGCTACGACGGGATT , reported binding signal: 0.0388 KA relative to UGCAUGU

Memo: AUGGUGU (DNA:RNA) RNA: GGGAGACCGGAAUUCAGAUUGUCCAUGGUGUUUAAAUCCCGUCGUAGCCACCA DNA 1: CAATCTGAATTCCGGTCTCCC DNA 2: TGGTGGCTACGACGGGATT , reported binding signal: 0.0152 KA relative to UGCAUGU

Memo: UGGGUGA (DNA:RNA) RNA: GGGAGACCGGAAUUCAGAUUGUCCUGGGUGAUUAAAUCCCGUCGUAGCCACCA DNA 1: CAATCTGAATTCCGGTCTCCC DNA 2: TGGTGGCTACGACGGGATT , reported binding signal: 0.0273 KA relative to UGCAUGU

Memo: UGGGUGC (DNA:RNA) RNA: GGGAGACCGGAAUUCAGAUUGUCCUGGGUGCUUAAAUCCCGUCGUAGCCACCA DNA 1: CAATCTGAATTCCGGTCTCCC DNA 2: TGGTGGCTACGACGGGATT , reported binding signal: 0.0429 KA relative to UGCAUGU
